Reported hIP1 GRPR EC50 is given for each of the following binders.
target: human GRP receptor (human, UniProt P30550 1-384); assay: cell-based or functional assay
Sequence (P30550 whole entry): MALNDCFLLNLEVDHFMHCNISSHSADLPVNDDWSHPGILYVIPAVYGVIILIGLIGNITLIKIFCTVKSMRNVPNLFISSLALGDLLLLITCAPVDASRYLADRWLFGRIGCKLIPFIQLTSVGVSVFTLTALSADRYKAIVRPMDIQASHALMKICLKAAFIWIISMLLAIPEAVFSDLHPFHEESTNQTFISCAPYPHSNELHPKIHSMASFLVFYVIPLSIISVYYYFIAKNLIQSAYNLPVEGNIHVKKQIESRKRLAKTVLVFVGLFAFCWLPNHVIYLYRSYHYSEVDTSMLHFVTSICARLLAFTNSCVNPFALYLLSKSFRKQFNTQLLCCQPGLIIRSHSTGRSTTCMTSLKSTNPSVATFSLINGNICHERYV
Starred links: 1 amine or outer side, 2 acyl side, 3 side chain; linkers in the order of their positions; H or OH if unused. Non-standard residues stand in square brackets, D forms with d. *: point of attachment. Trp(7-Me) = Cc1cccc2c(C[C@H](N)C(=O)O)c[nH]c12; C20 diacid = O=C(O)CCCCCCCCCCCCCCCCCCC(=O)*; d(γGlu) = O=C(O)[C@@H](CCC(=O)[*:2])N[*:1]; C18 diacid = O=C(O)CCCCCCCCCCCCCCCCC(=O)*; γGlu = O=C(O)[C@H](CCC(=O)[*:2])N[*:1]; Palmitoyl = CCCCCCCCCCCCCCCC(=O)*; 3Pal = N[C@@H](Cc1cccnc1)C(=O)O; Nle = CCCC[C@H](N)C(=O)O; AEEA = NCCOCCOCC(=O)O; βAla = NCCC(=O)O; Sar = CNCC(=O)O
recorded endpoint: hIP1 GRPR EC50 (nM)

1. Palmitoyl-[d(γGlu)][AEEA][AEEA]GN[3Pal]WAV[dA]HL[Nle]-NH2 (SMILES CCCCCCCCCCCCCCCC(=O)N[C@H](CCC(=O)NCCOCCOCC(=O)NCCOCCOCC(=O)NCC(=O)N[C@@H](CC(N)=O)C(=O)N[C@@H](Cc1cccnc1)C(=O)N[C@@H](Cc1c[nH]c2ccccc12)C(=O)N[C@@H](C)C(=O)N[C@H](C(=O)N[C@H](C)C(=O)N[C@@H](Cc1c[nH]cn1)C(=O)N[C@@H](CC(C)C)C(=O)N[C@@H](CCCC)C(N)=O)C(C)C)C(=O)O) [Peptide 12]    1.8
2. {C20 diacid}-[γGlu][AEEA][AEEA]GQHWAV[βAla]HL[Hse(Me)]-NH2 [Peptide 265]    7.7
3. {C20 diacid}-[γGlu][AEEA][AEEA]GNH[Trp(7-Me)]AV[dA]HL[Nle][Sar]-NH2 (SMILES CCCC[C@H](NC(=O)[C@H](CC(C)C)NC(=O)[C@H](Cc1c[nH]cn1)NC(=O)[C@@H](C)NC(=O)[C@@H](NC(=O)[C@H](C)NC(=O)[C@H](Cc1c[nH]c2c(C)cccc12)NC(=O)[C@H](Cc1c[nH]cn1)NC(=O)[C@H](CC(N)=O)NC(=O)CNC(=O)COCCOCCNC(=O)COCCOCCNC(=O)CC[C@H](NC(=O)CCCCCCCCCCCCCCCCCCC(=O)O)C(=O)O)C(C)C)C(=O)N(C)CC(N)=O) [Peptide 123]    60.1
4. {C20 diacid}-[γGlu][γGlu][AEEA][AEEA]RRH[Trp(7-Me)]AV[βAla]HL[Nle]-NH2 (SMILES CCCC[C@H](NC(=O)[C@H](CC(C)C)NC(=O)[C@H](Cc1c[nH]cn1)NC(=O)CCNC(=O)[C@@H](NC(=O)[C@H](C)NC(=O)[C@H](Cc1c[nH]c2c(C)cccc12)NC(=O)[C@H](Cc1c[nH]cn1)NC(=O)[C@H](CCCNC(=N)N)NC(=O)[C@H](CCCNC(=N)N)NC(=O)COCCOCCNC(=O)COCCOCCNC(=O)CC[C@H](NC(=O)CC[C@H](NC(=O)CCCCCCCCCCCCCCCCCCC(=O)O)C(=O)O)C(=O)O)C(C)C)C(N)=O) [Peptide 253]    3.7
5. Palmitoyl-[d(γGlu)][AEEA][AEEA][AEEA][AEEA]GN[3Pal][Trp(7-Me)]AV[dA]HL[Nle]-NH2 (SMILES CCCCCCCCCCCCCCCC(=O)N[C@H](CCC(=O)NCCOCCOCC(=O)NCCOCCOCC(=O)NCCOCCOCC(=O)NCCOCCOCC(=O)NCC(=O)N[C@@H](CC(N)=O)C(=O)N[C@@H](Cc1cccnc1)C(=O)N[C@@H](Cc1c[nH]c2c(C)cccc12)C(=O)N[C@@H](C)C(=O)N[C@H](C(=O)N[C@H](C)C(=O)N[C@@H](Cc1c[nH]cn1)C(=O)N[C@@H](CC(C)C)C(=O)N[C@@H](CCCC)C(N)=O)C(C)C)C(=O)O) [Peptide 58]    4.22
6. Palmitoyl-[d(γGlu)][AEEA][AEEA]GNHWAV[dA]HL[Nle][Sar]-NH2 (SMILES CCCCCCCCCCCCCCCC(=O)N[C@H](CCC(=O)NCCOCCOCC(=O)NCCOCCOCC(=O)NCC(=O)N[C@@H](CC(N)=O)C(=O)N[C@@H](Cc1c[nH]cn1)C(=O)N[C@@H](Cc1c[nH]c2ccccc12)C(=O)N[C@@H](C)C(=O)N[C@H](C(=O)N[C@H](C)C(=O)N[C@@H](Cc1c[nH]cn1)C(=O)N[C@@H](CC(C)C)C(=O)N[C@@H](CCCC)C(=O)N(C)CC(N)=O)C(C)C)C(=O)O) [Peptide 48]    1.1
7. {C20 diacid}-[γGlu][γGlu][AEEA][AEEA]GRHWAV[dA]HL[Nle]-NH2 (SMILES CCCC[C@H](NC(=O)[C@H](CC(C)C)NC(=O)[C@H](Cc1c[nH]cn1)NC(=O)[C@@H](C)NC(=O)[C@@H](NC(=O)[C@H](C)NC(=O)[C@H](Cc1c[nH]c2ccccc12)NC(=O)[C@H](Cc1c[nH]cn1)NC(=O)[C@H](CCCNC(=N)N)NC(=O)CNC(=O)COCCOCCNC(=O)COCCOCCNC(=O)CC[C@H](NC(=O)CC[C@H](NC(=O)CCCCCCCCCCCCCCCCCCC(=O)O)C(=O)O)C(=O)O)C(C)C)C(N)=O) [Peptide 244]    2.8
8. {C18 diacid}-[γGlu][AEEA][AEEA][dF]QHWAV[dA]HL[Nle]-NH2 (SMILES CCCC[C@H](NC(=O)[C@H](CC(C)C)NC(=O)[C@H](Cc1c[nH]cn1)NC(=O)[C@@H](C)NC(=O)[C@@H](NC(=O)[C@H](C)NC(=O)[C@H](Cc1c[nH]c2ccccc12)NC(=O)[C@H](Cc1c[nH]cn1)NC(=O)[C@H](CCC(N)=O)NC(=O)[C@@H](Cc1ccccc1)NC(=O)COCCOCCNC(=O)COCCOCCNC(=O)CC[C@H](NC(=O)CCCCCCCCCCCCCCCCC(=O)O)C(=O)O)C(C)C)C(N)=O) [Peptide 161]    21.4
